I'd appreciate it if you could supply Dox/P. a: concentration required to restore doxycycline activity (combination MIC) values for the items below.
- Tested on: P. aeruginosa ATCC 27853
- EXPERIMENT DESCRIPTION: Enhancement of doxycycline action against P. aeruginosa
- Format: cell-based, Pseudomonas aeruginosa
- CONDITION: doxycycline at 4.5 µM
Give bare numbers, in µM.

MOLECULE	MEASUREMENT
O=C(Cc1c[nH]c2c(F)cccc12)NCCCNCCCCCCNCCCNC(=O)Cc1c[nH]c2c(F)cccc12.O=C(O)C(F)(F)F.O=C(O)C(F)(F)F [Compound 18b]	247

Moving on to the next molecule.
Input line: Report Dox/P. a: concentration required to restore doxycycline activity (combination MIC) for O=C(Cc1c[nH]c2ccc(Br)cc12)NCCCNCCCCCCCNCCCNC(=O)Cc1c[nH]c2ccc(Br)cc12.O=C(O)C(F)(F)F.O=C(O)C(F)(F)F [Compound 15c] tested on P. aeruginosa ATCC 27853.
Output line: 6.62

###

I'd appreciate it if you could supply MIC values for the items below.
- Tested on: Staphylococcus aureus (ATCC 25923)
- EXPERIMENT DESCRIPTION: Intrinsic antimicrobial activity (MIC) against S. aureus
- Assay type: cell-based
- CONDITION: ATCC25923, S. aureus ATCC 25923, mean (n = 3), read-out: MIC S. a
Give bare numbers, in µM.

MOLECULE	UNITS TEXT	MIC
Cc1ccc2[nH]cc(CC(=O)NCCCNCCCCCCCCNCCCNC(=O)Cc3c[nH]c4ccc(C)cc34)c2c1.O=C(O)C(F)(F)F.O=C(O)C(F)(F)F [Compound 17d]	µM	15.1

Please state MIC for every molecule in the list that follows.
1. COc1cccc2c(CC(=O)NCCCNCCCCCCCNCCCNC(=O)Cc3c[nH]c4c(OC)cccc34)c[nH]c12.O=C(O)C(F)(F)F.O=C(O)C(F)(F)F [Compound 19c]
2. [H]/N=C(/N)N[C@H]1[C@H](O)[C@@H](O)[C@H](O[C@@H]2O[C@@H](C)[C@](O)(C=O)[C@H]2O[C@@H]2O[C@@H](CO)[C@H](O)[C@@H](O)[C@@H]2NC)[C@@H](N/C(N)=N\[H])[C@@H]1O [streptomycin, reference compound]

Output line:
1. 29.5
2. 21.5

Please state MIC for every molecule in the list that follows.
1. O=C(Cc1c[nH]c2c(F)cccc12)NCCCNCCCCCCCCCCCCNCCCNC(=O)Cc1c[nH]c2c(F)cccc12.O=C(O)C(F)(F)F.O=C(O)C(F)(F)F [Compound 18f]
2. O=C(Cc1c[nH]c2c(F)cccc12)NCCCNCCCCCCNCCCNC(=O)Cc1c[nH]c2c(F)cccc12.O=C(O)C(F)(F)F.O=C(O)C(F)(F)F [Compound 18b]
3. Cc1ccc2[nH]cc(CC(=O)NCCCNCCCCCCCCCCNCCCNC(=O)Cc3c[nH]c4ccc(C)cc34)c2c1.O=C(O)C(F)(F)F.O=C(O)C(F)(F)F [Compound 17e]
4. COc1cccc2c(CC(=O)NCCCNCCCCNCCCNC(=O)Cc3c[nH]c4c(OC)cccc34)c[nH]c12.O=C(O)C(F)(F)F.O=C(O)C(F)(F)F [Compound 19a]
5. COc1ccc2[nH]cc(CC(=O)NCCCNCCCCCCNCCCNC(=O)Cc3c[nH]c4ccc(OC)cc34)c2c1.O=C(O)C(F)(F)F.O=C(O)C(F)(F)F [Compound 16b]

Output line:
[7, 124, 7.29, 124, 50]

Please state MIC for every molecule in the list that follows.
1. Cc1ccc2[nH]cc(CC(=O)NCCCNCCCCNCCCNC(=O)Cc3c[nH]c4ccc(C)cc34)c2c1.O=C(O)C(F)(F)F.O=C(O)C(F)(F)F [Compound 17a]
2. O=C(Cc1c[nH]c2c(F)cccc12)NCCCNCCCCCCCNCCCNC(=O)Cc1c[nH]c2c(F)cccc12.O=C(O)C(F)(F)F.O=C(O)C(F)(F)F [Compound 18c]

Output line:
129
30.4

###

- Test system: human red blood cells
- EXPERIMENT DESCRIPTION: Hemolytic assay
- Type: cell-based
- CONDITION: mean (n = 2)
MEASURE: Hemolysis: concentration of compound at 10% hemolytic activity (HC10)

As a guide, the following entries are already answered.
MOLECULE	MEASUREMENT
O=C(Cc1c[nH]c2ccccc12)NCCCNCCCCCCCCCCCCNCCCNC(=O)Cc1c[nH]c2ccccc12.O=C(O)C(F)(F)F.O=C(O)C(F)(F)F [Compound 14f]	≤0.29 µM
O=C(Cc1c[nH]c2ccc(Br)cc12)NCCCNCCCCCCCCCCCCNCCCNC(=O)Cc1c[nH]c2ccc(Br)cc12.O=C(O)C(F)(F)F.O=C(O)C(F)(F)F [Compound 15f]	≤0.25 µM
COc1ccc2[nH]cc(CC(=O)NCCCNCCCCCCCCCCNCCCNC(=O)Cc3c[nH]c4ccc(OC)cc34)c2c1.O=C(O)C(F)(F)F.O=C(O)C(F)(F)F [Compound 16e]	>36 µM
Cc1ccc2[nH]cc(CC(=O)NCCCNCCCCNCCCNC(=O)Cc3c[nH]c4ccc(C)cc34)c2c1.O=C(O)C(F)(F)F.O=C(O)C(F)(F)F [Compound 17a]	8.46 µM
O=C(Cc1c[nH]c2ccc(Br)cc12)NCCCNCCCCCCCCNCCCNC(=O)Cc1c[nH]c2ccc(Br)cc12.O=C(O)C(F)(F)F.O=C(O)C(F)(F)F [Compound 15d]	10.1 µM

Input line: Report Hemolysis: concentration of compound at 10% hemolytic activity (HC10) for Cc1cccc2c(CC(=O)NCCCNCCCCCCNCCCNC(=O)Cc3c[nH]c4c(C)cccc34)c[nH]c12.O=C(O)C(F)(F)F.O=C(O)C(F)(F)F [Compound 20b] tested on human red blood cells.
Output line: 9.24 µM

###

- EXPERIMENT DESCRIPTION: Cytotoxicity assay
- Type: cell-based
- CONDITION: human; HEK293 cells; mean (n = 2); read-out: Cytotoxicity: concentration of compound at 50% cytotoxicity (IC50)
MEASURE: IC50

As a guide, the following entries are already answered.
COMPOUND	IC50
COc1ccc2[nH]cc(CC(=O)NCCCNCCCCCCCCCCNCCCNC(=O)Cc3c[nH]c4ccc(OC)cc34)c2c1.O=C(O)C(F)(F)F.O=C(O)C(F)(F)F [Compound 16e]	> 36 µM
COc1cccc2c(CC(=O)NCCCNCCCCCCNCCCNC(=O)Cc3c[nH]c4c(OC)cccc34)c[nH]c12.O=C(O)C(F)(F)F.O=C(O)C(F)(F)F [Compound 19b]	> 38 µM
Cc1ccc2[nH]cc(CC(=O)NCCCNCCCCCCCCCCNCCCNC(=O)Cc3c[nH]c4ccc(C)cc34)c2c1.O=C(O)C(F)(F)F.O=C(O)C(F)(F)F [Compound 17e]	> 37 µM
O=C(Cc1c[nH]c2c(F)cccc12)NCCCNCCCCNCCCNC(=O)Cc1c[nH]c2c(F)cccc12.O=C(O)C(F)(F)F.O=C(O)C(F)(F)F [Compound 18a]	> 41 µM
Cc1ccc2[nH]cc(CC(=O)NCCCNCCCCCCNCCCNC(=O)Cc3c[nH]c4ccc(C)cc34)c2c1.O=C(O)C(F)(F)F.O=C(O)C(F)(F)F [Compound 17b]	> 40 µM
O=C(Cc1c[nH]c2ccc(Br)cc12)NCCCNCCCCCCCCNCCCNC(=O)Cc1c[nH]c2ccc(Br)cc12.O=C(O)C(F)(F)F.O=C(O)C(F)(F)F [Compound 15d]	> 33 µM

Please state IC50 for every compound in the list that follows.
1. COc1ccc2[nH]cc(CC(=O)NCCCNCCCCCCCNCCCNC(=O)Cc3c[nH]c4ccc(OC)cc34)c2c1.O=C(O)C(F)(F)F.O=C(O)C(F)(F)F [Compound 16c]
2. Cc1ccc2[nH]cc(CC(=O)NCCCNCCCCNCCCNC(=O)Cc3c[nH]c4ccc(C)cc34)c2c1.O=C(O)C(F)(F)F.O=C(O)C(F)(F)F [Compound 17a]
3. O=C(Cc1c[nH]c2ccccc12)NCCCNCCCCCCCCCCCCNCCCNC(=O)Cc1c[nH]c2ccccc12.O=C(O)C(F)(F)F.O=C(O)C(F)(F)F [Compound 14f]
4. O=C(Cc1c[nH]c2c(F)cccc12)NCCCNCCCCCCCCNCCCNC(=O)Cc1c[nH]c2c(F)cccc12.O=C(O)C(F)(F)F.O=C(O)C(F)(F)F [Compound 18d]
5. O=C(Cc1c[nH]c2ccccc12)NCCCNCCCCCCCNCCCNC(=O)Cc1c[nH]c2ccccc12.O=C(O)C(F)(F)F.O=C(O)C(F)(F)F [Compound 14c]
6. O=C(Cc1c[nH]c2ccccc12)NCCCNCCCCCCCCCCNCCCNC(=O)Cc1c[nH]c2ccccc12.O=C(O)C(F)(F)F.O=C(O)C(F)(F)F [Compound 14e]

Output line:
["> 38 µM", "> 41 µM", "> 37 µM", "> 38 µM", "> 41 µM", "> 39 µM"]
